- test system: Neuronal acetylcholine receptor subunit alpha-7 (Rattus norvegicus)
- assay overview: Displacement of [3H]epibatidine from rat alpha7 nAChR expressed in […] cells after 4 hrs by liquid scintillation counting
Items are presented alongside their recorded Ki.
# unit: µM | format: bare number

>>> df
                   smiles_representation  experimental_endpoint  observed_value
0  O=C(CCCCN1CCOCC1)Nc1ccc(-c2cccnc2)cc1                     Ki             0.5

# input for lookup
[in] Bench note: what Ki did O=C(CN1CCOCC1)Nc1ccc(-c2cccnc2)cc1 show?
[out] 3.9

* * *

- test system: Neuronal acetylcholine receptor subunit alpha-7 (Rattus norvegicus, UniProt Q05941)
- Sequence (Q05941 whole entry): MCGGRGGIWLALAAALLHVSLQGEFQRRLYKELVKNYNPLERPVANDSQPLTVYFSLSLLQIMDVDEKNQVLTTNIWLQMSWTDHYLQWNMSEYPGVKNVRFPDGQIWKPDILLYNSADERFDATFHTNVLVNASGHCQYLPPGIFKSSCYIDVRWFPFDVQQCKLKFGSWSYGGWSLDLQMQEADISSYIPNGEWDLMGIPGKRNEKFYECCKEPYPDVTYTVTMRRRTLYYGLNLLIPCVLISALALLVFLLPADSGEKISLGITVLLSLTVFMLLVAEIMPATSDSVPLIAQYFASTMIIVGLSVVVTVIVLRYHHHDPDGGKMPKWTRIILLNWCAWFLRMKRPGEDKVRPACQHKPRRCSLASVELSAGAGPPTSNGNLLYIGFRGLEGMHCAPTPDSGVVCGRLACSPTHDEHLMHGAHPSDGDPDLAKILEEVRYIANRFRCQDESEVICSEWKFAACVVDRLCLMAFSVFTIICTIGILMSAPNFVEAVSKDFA
- assay overview: Partial agonist activity at wild type rat recombinant alpha7 nAChR expressed in Xenopus oocyte by voltage clamp electrophysiology assay
experimental endpoint: EC50 (µM)
Reply with just the number (in µM).

[in] Recorded EC50 for O=C(CCCCN1CCOCC1)Nc1ccc(-c2cccnc2)cc1 with Neuronal acetylcholine receptor subunit alpha-7 (Rattus norvegicus, UniProt Q05941), please?
[out] 9.5
